assayed_system: PI3Kβ (Homo sapiens)
Construct: purchased DiscoveRx Corporation, San Diego (contract service, KINOMEscan)
Sequence (P42338 whole entry): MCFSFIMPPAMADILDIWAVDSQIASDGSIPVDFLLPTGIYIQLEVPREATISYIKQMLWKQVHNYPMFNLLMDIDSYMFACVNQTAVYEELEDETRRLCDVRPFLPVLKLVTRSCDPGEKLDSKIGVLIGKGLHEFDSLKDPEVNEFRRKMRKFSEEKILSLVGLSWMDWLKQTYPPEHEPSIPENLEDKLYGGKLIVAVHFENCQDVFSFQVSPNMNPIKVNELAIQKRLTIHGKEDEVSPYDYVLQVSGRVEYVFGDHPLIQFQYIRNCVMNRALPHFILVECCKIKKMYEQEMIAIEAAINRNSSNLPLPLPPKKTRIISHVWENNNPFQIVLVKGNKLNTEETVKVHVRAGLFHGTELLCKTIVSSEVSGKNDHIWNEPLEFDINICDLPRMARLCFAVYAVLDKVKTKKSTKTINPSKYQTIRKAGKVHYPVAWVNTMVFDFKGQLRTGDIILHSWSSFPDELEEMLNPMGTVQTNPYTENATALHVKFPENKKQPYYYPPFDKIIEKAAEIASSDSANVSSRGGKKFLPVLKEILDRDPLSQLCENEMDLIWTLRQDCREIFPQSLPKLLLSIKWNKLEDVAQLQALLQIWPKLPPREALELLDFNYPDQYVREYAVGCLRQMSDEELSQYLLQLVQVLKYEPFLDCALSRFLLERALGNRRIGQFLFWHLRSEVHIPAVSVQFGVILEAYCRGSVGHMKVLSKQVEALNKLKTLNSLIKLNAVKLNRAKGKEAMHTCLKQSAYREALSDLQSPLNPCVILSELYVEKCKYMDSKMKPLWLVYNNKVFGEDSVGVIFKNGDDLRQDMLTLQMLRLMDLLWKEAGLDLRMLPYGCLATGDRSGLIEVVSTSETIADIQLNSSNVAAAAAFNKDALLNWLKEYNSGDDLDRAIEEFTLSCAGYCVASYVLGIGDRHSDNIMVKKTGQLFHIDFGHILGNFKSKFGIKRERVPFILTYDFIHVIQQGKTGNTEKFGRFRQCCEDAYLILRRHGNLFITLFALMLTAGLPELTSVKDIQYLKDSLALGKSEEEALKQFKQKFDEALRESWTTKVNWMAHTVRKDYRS
method_notes: Enzyme binding assay (KINOMEscan, DiscoveRx)
condition_notes: PIK3Cβ_h, read-out: Kd PIK3Cβ_h
Entries annotated with measured Kd

{"compound": "CC(Nc1cc(F)c(F)c(F)c1)c1cc(C(=O)NCCO)cc2ncc(N3CCOCC3)nc12 (single isomer, unassigned) [Compound 213]", "Kd [nM]": 2}
{"compound": "CC(Nc1ccc(F)c(F)c1)c1cc(C(=O)N[C@H]2CCNC2)cc2ncc(N3CCOCC3)nc12 (single isomer, unassigned) [Compound 374a]", "Kd [nM]": 0.3}
{"compound": "CNCCOCCN(C)C(=O)c1cc(C(C)Nc2ccc(F)c(F)c2)c2nc(N3CCOCC3)cnc2c1 (single isomer, unassigned) [Compound 345a]", "Kd [nM]": 2}
{"compound": "CC(Nc1cc(F)c(F)c(F)c1)c1cc(C(=O)N(C)C2CCNC2)cc2ncc(N3CCOCC3)nc12 (single isomer, unassigned) [Compound 296b]", "Kd [nM]": 14}
{"compound": "C[C@H](CO)NC(=O)c1cc(C2CCCN2c2cc(F)cc(F)c2)c2nc(N3CCOCC3)cnc2c1 (single isomer, unassigned)", "Kd [nM]": 2}
{"compound": "Cc1cc(C)cc(NC(C)c2cc(C(=O)N3CCOCC3)cc3ncc(N4CCOCC4)nc23)c1 (centres unmarked)", "Kd [nM]": 13}
{"compound": "CC(C)NCCNC(=O)c1cc(C(C)Nc2ccc(Cl)c(F)c2)c2nc(N3CCOCC3)cnc2c1 (single isomer, unassigned) [Compound 312a]", "Kd [nM]": 1150}
{"compound": "OC1CN(Cc2cc(C3CCCN3c3cc(F)cc(F)c3)c3nc(N4CCOCC4)cnc3c2)C1 (centres unmarked)", "Kd [nM]": 0.1}
{"compound": "CC(Nc1cc(F)cc(F)c1)c1cc(C(=O)NS(=O)(=O)C2CC2)cc2ncc(N3CCOCC3)nc12 (centres unmarked) [Compound 218]", "Kd [nM]": 5}
{"compound": "CC(C)NCCNC(=O)c1cc(C(C)Nc2ccc(Cl)c(F)c2)c2nc(N3CCOCC3)cnc2c1 (single isomer, unassigned) [Compound 312b]", "Kd [nM]": 26}
{"compound": "CN(C)C(=O)c1cc(C2CCCN2c2cc(F)cc(CO)c2)c2nc(N3CCOCC3)cnc2c1 (centres unmarked)", "Kd [nM]": 3}
{"compound": "CC(Oc1cc(F)ccc1Br)c1cc(C(=O)N(C)C)cc2ncc(N3CCOCC3)nc12 (centres unmarked)", "Kd [nM]": 15}
{"compound": "OCc1cc(C2CCCN2c2cc(F)cc(F)c2)c2nc(N3CCOCC3)cnc2c1 (centres unmarked)", "Kd [nM]": 0.5}
{"compound": "CN[C@H]1CCN(C(=O)c2cc(C(C)Nc3cc(F)c(F)c(F)c3)c3nc(N4CCOCC4)cnc3c2)C1 (single isomer, unassigned) [Compound 297a]", "Kd [nM]": 26}
{"compound": "CC(C)NCCNC(=O)c1cc(C(C)Oc2cccc(F)c2)c2nc(N3CCOCC3)cnc2c1 (single isomer, unassigned) [Compound 314a]", "Kd [nM]": 417}
{"compound": "CNCCNC(=O)c1cc([C@@H](C)Oc2cccc(F)c2)c2nc(N3CCOCC3)cnc2c1 [Compound 122a]", "Kd [nM]": 3}
{"compound": "CC(C)NCCNC(=O)c1cc(C(C)Nc2cc(F)c(F)c(F)c2)c2nc(N3CCOCC3)cnc2c1 (single isomer, unassigned) [Compound 283b]", "Kd [nM]": 1380}
{"compound": "CC(Nc1cccc(F)c1)c1cc(C(=O)N2CC[C@@H](O)C2)cc2ncc(N3CCOCC3)nc12 (single isomer, unassigned) [Compound 321a]", "Kd [nM]": 1}
{"compound": "CC(Oc1cc(F)cc(F)c1)c1cc(C(=O)N2CCOCC2)cc2ncc(N3CCO[C@H](C)C3)nc12 (mixture of isomers)", "Kd [nM]": 13}
{"compound": "CC(Nc1cc(F)cc(F)c1)c1cc(C=NO)cc2ncc(N3CCOCC3)nc12 (single isomer, unassigned)", "Kd [nM]": 6}
{"compound": "CC(Oc1ccc(F)c(F)c1)c1cc(C(=O)N2CCN3CCC[C@H]3C2)cc2ncc(N3CCOCC3)nc12 (single isomer, unassigned) [Compound 369b]", "Kd [nM]": 3310}
{"compound": "CC(c1cc(C(=O)N2CCOCC2)cc2ncc(N3CCOCC3)nc12)N(CCO)c1cc(F)cc(F)c1 (centres unmarked)", "Kd [nM]": 3}
{"compound": "CC(Nc1cc(F)c(F)c(F)c1)c1cc(C(=O)NCCN(C)C)cc2ncc(N3CCOCC3)nc12 (single isomer, unassigned) [Compound 309b]", "Kd [nM]": 18}
{"compound": "CCN1CCN(C(=O)c2cc(C3CCCN3c3cc(F)cc(F)c3)c3nc(N4CCOCC4)cnc3c2)CC1 (centres unmarked)", "Kd [nM]": 0.5}
{"compound": "CC(Nc1ccc(F)c(F)c1)c1cc(C(=O)NCC2CCCN2)cc2ncc(N3CCOCC3)nc12 (single isomer, unassigned) [Compound 329a]", "Kd [nM]": 0.1}
{"compound": "CNCC(O)c1cc(C2CCCN2c2cc(F)cc(F)c2)c2nc(N3CCOCC3)cnc2c1 (centres unmarked)", "Kd [nM]": 0.2}

====

pKd: −log10 of the molar value.
Observed pKd values for kinase enzymes (Homo sapiens, UniProt P48736) are listed in what follows.
measure: pKd

{"molecule": "CN(C(=O)c1cc(NCc2cc(F)cc(F)c2)c2nc(N3CCOCC3)cnc2c1)[C@H]1CCNC1", "assayed_system": "kinase enzymes (Homo sapiens, UniProt P48736)", "result_modifier": "<", "observed_value": 4.52}
{"molecule": "CNCCNC(=O)c1cc(C(C)Oc2ccc(F)c(F)c2)c2nc(N3CCOCC3)cnc2c1 (single isomer, unassigned) [Compound 344a]", "assayed_system": "kinase enzymes (Homo sapiens, UniProt P48736)", "result_modifier": "=", "observed_value": 5.08}
{"molecule": "CC(Nc1ccc(F)c(F)c1)c1cc(C(=O)NC[C@H]2CCCN2)cc2ncc(N3CCOCC3)nc12 (stereo partly shown)", "assayed_system": "kinase enzymes (Homo sapiens, UniProt P48736)", "result_modifier": "=", "observed_value": 5.29}
{"molecule": "CN(C)C(=O)c1cc(N2CCCC2c2cc(F)cc(F)c2)c2nc(N3CCOCC3)cnc2c1 (single isomer, unassigned) [Compound 395b]", "assayed_system": "kinase enzymes (Homo sapiens, UniProt P48736)", "result_modifier": "=", "observed_value": 4.49}

====

The entries below come with measured melting point values attached.

{"compound": "CNCCNC(=O)c1cc(NCc2cc(F)cc(F)c2)c2nc(N3CCOCC3)cnc2c1", "melting point": "180 °C"}
{"compound": "CC(Nc1ccc(F)c(F)c1)c1cc(C(=O)N2C[C@@H](C)N[C@@H](C)C2)cc2ncc(N3CCOCC3)nc12 (single isomer, unassigned) [Compound 357a]", "melting point": "116 °C"}
{"compound": "COC(=O)c1cc(C2CCCN2c2cc(F)cc(F)c2)c2nc(N3CCOCC3)cnc2c1 (single isomer, unassigned) [Compound 31]", "melting point": "213 °C"}
{"compound": "CC(C)NCCNC(=O)c1cc(C(C)Nc2cccc(F)c2)c2nc(N3CCOCC3)cnc2c1 (centres unmarked) [Compound 226]", "melting point": "158 °C"}
{"compound": "CNCCNC(=O)c1cc(C(C)Nc2cc(F)cc(F)c2)c2nc(N3CCOCC3)cnc2c1 (single isomer, unassigned) [Compound 406a]", "melting point": "80 °C"}
{"compound": "CC(Nc1ccc(F)c(F)c1)c1cc(C(=O)N(C)C2CCNC2)cc2ncc(N3CCOCC3)nc12 (centres unmarked) [Compound 322b]", "melting point": "80 °C"}
{"compound": "CN1CCN(C(=O)c2cc(C3CCCN3c3cc(F)cc(F)c3)c3nc(N4CCOCC4)cnc3c2)CC1 (single isomer, unassigned)", "melting point": "80 °C"}
{"compound": "Cc1c(CNc2cc(C(=O)N(C)C)cc3ncc(N4CCOCC4)nc23)cccc1C(F)(F)F", "melting point": "202 °C"}
{"compound": "CC(Nc1cc(F)cc(F)c1)c1cc(C(=O)NC2CN(CC(F)(F)F)C2)cc2ncc(N3CCOCC3)nc12 (centres unmarked)", "melting point": "110 °C"}
{"compound": "Cc1c(F)cccc1CN(C)c1cc(C(=O)N2CC3(C2)CS(=O)(=O)C3)cc2ncc(N3CCOCC3)nc12", "melting point": "195 °C"}
{"compound": "CC(Nc1cc(F)cc(F)c1)c1cc(CNCC(F)(F)F)cc2ncc(N3CCOCC3)nc12 (single isomer, unassigned) [Compound 162]", "melting point": "80 °C"}
{"compound": "CON(C)C(=O)c1cc(C2CCCN2c2cc(F)cc(F)c2)c2nc(N3CCOCC3)cnc2c1 (centres unmarked)", "melting point": "80 °C"}
{"compound": "CC(Nc1ccc(F)c(F)c1)c1cc(C(=O)N2CCN3CCC[C@H]3C2)cc2ncc(N3CCOCC3)nc12 (single isomer, unassigned) [Compound 287b]", "melting point": "95 °C"}
{"compound": "CC(Nc1cc(F)cc(F)c1)c1cc(C(=O)N2CCNC(C(F)(F)F)C2)cc2ncc(N3CCOCC3)nc12 (single isomer, unassigned) [Compound 237a]", "melting point": "120 °C"}

Just for reference, patent US10526316B2 is where these values come from.
